experiment: Measurement of P: partition coefficient in 1-octanol/water system; details: 25° C., observed, for aspirin and caffeine the parent drug itself
So I've got a bunch of compounds here, and I need their logP of complex values.

Worked cases, logP of complex given:
CC(=O)Oc1ccccc1C(=O)[O-].CC(=O)Oc1ccccc1C(=O)[O-].CC(=O)Oc1ccccc1C(=O)[O-].CC(=O)Oc1ccccc1C(=O)[O-].[Cu+2].[Cu+2].c1ccc2ncccc2c1.c1ccc2ncccc2c1 [ASP-4, Cu2(ASP)4(Quinoline)2]; 0.4772(140)
COc1cccc(OC)c1C(=O)[O-].COc1cccc(OC)c1C(=O)[O-].COc1cccc(OC)c1C(=O)[O-].COc1cccc(OC)c1C(=O)[O-].O.O.[Cu+2].[Cu+2] [MC-3, Cu2(DMB)4(H2O)2]; −1.442(27)
CC(=O)[O-].CC(=O)[O-].COc1cccc(OC)c1C(=O)[O-].COc1cccc(OC)c1C(=O)[O-].O.O.[Cu+2].[Cu+2] [MC-2, Cu2(CH3COO)2(DMB)2(H2O)2]; −1.496(15)
Brc1cccnc1.Brc1cccnc1.CC(=O)Oc1ccccc1C(=O)[O-].CC(=O)Oc1ccccc1C(=O)[O-].CC(=O)Oc1ccccc1C(=O)[O-].CC(=O)Oc1ccccc1C(=O)[O-].[Cu+2].[Cu+2] [ASP-3, Cu2(ASP)4(3-Br-Py)2]; 0.1066(58)
O.O.O=C(Oc1ccccc1C(=O)[O-])c1ccccc1O.O=C(Oc1ccccc1C(=O)[O-])c1ccccc1O.O=C(Oc1ccccc1C(=O)[O-])c1ccccc1O.O=C(Oc1ccccc1C(=O)[O-])c1ccccc1O.[Cu+2].[Cu+2] [SAS-1, Cu2(SAS)4(H2O)2]; 0.06927(1394)

# ---- query compound ----
Lookup: I have this compound here, CC(=O)Oc1ccccc1C(=O)[O-].CC(=O)Oc1ccccc1C(=O)[O-].NC(=O)c1cccnc1.NC(=O)c1cccnc1.[Cu+2] [ASP-8, Cu(ASP)2(Nicotinamide)2] , and I need its recorded logP of complex.
Found: −0.5257(136)

* * *

experiment: Measurement of P: partition coefficient in 1-octanol/water system; details: 25° C., observed, for aspirin and caffeine the parent drug itself
Consider the following compounds; for each one, report its logP of complex.

# count of solved cases: 3
CC(=O)Oc1ccccc1C(=O)[O-].CC(=O)Oc1ccccc1C(=O)[O-].CC(=O)Oc1ccccc1C(=O)[O-].CC(=O)Oc1ccccc1C(=O)[O-].CN(C)C=O.CN(C)C=O.[Cu+2].[Cu+2] [ASP-2, Cu2(ASP)4(DMF)2]; −0.3484(166)
CC(=O)Oc1ccccc1C(=O)[O-].CC(=O)Oc1ccccc1C(=O)[O-].NC(=O)c1ccncc1.NC(=O)c1ccncc1.[Cu+2] [ASP-7, Cu(ASP)2(Isonicotinamide)2]; −0.4723(272)
C1CCOC1.C1CCOC1.O=C(Oc1ccccc1C(=O)[O-])c1ccccc1O.O=C(Oc1ccccc1C(=O)[O-])c1ccccc1O.O=C(Oc1ccccc1C(=O)[O-])c1ccccc1O.O=C(Oc1ccccc1C(=O)[O-])c1ccccc1O.[Cu+2].[Cu+2].c1ccc(-c2ccncc2)cc1.c1ccc(-c2ccncc2)cc1 [SAS-5, Cu2(SAS)4(4-Phenyl-Pyridine)2(THF)2]; 1.231(53)

Lookup: Which logP of complex value belongs to CC(=O)Oc1ccccc1C(=O)[O-].CC(=O)Oc1ccccc1C(=O)[O-].CC(=O)Oc1ccccc1C(=O)[O-].CC(=O)Oc1ccccc1C(=O)[O-].[Cu+2].[Cu+2] [ASP-1, Cu2(ASP)4] ?
Found: −0.2371(267)
